Test system: Hs-578T
Experiment: NCI tumour cell line growth inhibition, 48 h
Activity calls are given as the source filed them. No stated cut-off is given here; in the data, active = GI50 up to about 1.1 µM and inactive = higher.
Classes used: active, inactive

1. NNC(=O)c1nn[nH]c1SSc1[nH]nnc1C(=O)NN: inactive
2. Nc1nc(Cl)c(/N=N/c2ccc(Cl)cc2)c(NCC2(CO)CCC(CCc3ccccc3)C2)n1 (stereo not given): inactive
3. CCOC(=O)c1nc2c(nc1C(=O)OCC)C(=O)c1ccccc1C2=O: active
4. Nc1nc(Nc2ccc(Cl)cc2)sc1C(=O)c1cc2ccccc2oc1=O: inactive
5. O=[N+]([O-])c1ccc2c(/N=N/c3c(O)ccc4ccccc34)c(O)cc(S(=O)(=O)O)c2c1: inactive
6. COc1cc(OC)c(OC)cc1/C=C1\C=Cc2ccccc21: inactive
7. COC1CC(OC2CCC3(C)C(=CCC4C3C(OC(C)=O)C(OC(=O)CC(C)C)C3(C)C(C(C)=O)CCC43O)C2)OC(C)C1OC1CC(OC)C(OC2CC(OC)C(OC3OC(C)C(O)C(OC)C3O)C(C)O2)C(C)O1 (stereo not given): inactive
8. C/C(=C\c1ccc2c(c1)OCO2)[N+](=O)[O-]: inactive
9. COC(=O)Nc1nc2cc(NS(=O)(=O)c3ccc(Cl)cc3)ccc2[nH]1: inactive
10. CCCCCCCCCCCCCCCCCCNc1ccn(C2OC(COP(=O)(O)OCC3OC(n4cc(F)c(=O)[nH]c4=O)CC3O)C(O)C2O)c(=O)n1 (stereo not given): inactive
11. C=CCN1CCC2(CC1)NC(=O)c1ccccc1O2: inactive
12. NC(=S)N/N=C\CC(O)(C(F)(F)F)C(F)(F)F: inactive
13. CCCCCCCCCC(O)CC(=O)c1c(O)cccc1O (stereo not given): inactive
14. Clc1ccc(-c2nc3ccc4ccccc4c3c3c2CCCC3)cc1: inactive
15. CC(C#N)N(CCc1ccccc1)C(=O)c1ccccc1 (stereo not given): inactive
16. CN1C(=O)CC2(C)c3cc(O)ccc3N(C)C12 (stereo not given): inactive
17. CCOC1CC(=O)c2c(Br)sc(Br)c21 (stereo not given): inactive
18. CCOC(=O)c1cc(=O)oc2c1N(C)c1ncccc1N2: inactive
19. NC(=O)NC(=O)c1cccc(NC(=O)CF)c1: inactive
20. CC(=O)NC1C(OCc2ccccc2)OC(CO)C(O)C1OCC(=O)N[C@@H](C)C(=O)N[C@H](CCC(=O)NCCCNc1ccc([N+](=O)[O-])c2[nH]c3ccccc3c(=O)c12)C(N)=O (stereo not given in full): inactive
